Data provenance: patent US11083725B2

System: NHBE cells
assay-protocol: Biolog metabolic array: substrate use by NHBE cells with or without CA09 infection
Assay type: cell-based, human
experimental-setup: Virus: CA09-infected NHBE cells, MOI 1; Biolog PMM2; 6 hr
attribute-measured: 590 nm absorbance normalized to zero hour (substrate use), 6 hr
Answers are plain numbers.

A selection of reference data follows.
O=C[C@H](O)[C@@H](O)[C@H](O)[C@H](O)CO [D-(+)-Glucose] | 2.91
O=C(CO)[C@@H](O)[C@H](O)[C@@H](O)CO | 0.34
CC(=O)C(=O)O | 1.09

Any idea what 590 nm absorbance normalized to zero hour (substrate use), 6 hr was measured for `CCC(=O)C(=O)O` ?
0.32

---

Hi there, I'd appreciate the recorded Substrate use, 590 nm absorbance normalized to zero hour, 7 hr for every entry that follows.
Test system: NHBE cells
assay-protocol: Biolog metabolic array: substrate use by NHBE cells with or without CA09 infection
Format: cell-based, human
experimental-setup: Control (uninfected) NHBE cells, Biolog PMM2, 7 hr
One number for each entry.

CO[C@@H]1O[C@H](CO)[C@@H](O)[C@H](O)[C@H]1O [b-Methyl-D-Glucoside] | 2.85
OC[C@@H](O)[C@@H](O)[C@H](O)[C@@H](O)CO | 5.29
O=C(O)C(O)C(O)C(=O)O (stereo not shown) | 2.70
OCC(O)CO | 1.06
OCc1ccccc1O[C@@H]1O[C@H](CO)[C@@H](O)[C@H](O)[C@H]1O | 0.69
Nc1ncnc2c1ncn2[C@@H]1O[C@H](CO)[C@@H](O)[C@H]1O | 2.97

Please state Substrate use, 590 nm absorbance normalized to zero hour, 7 hr for every compound in the list that follows.
1. OC[C@@H](O)[C@H](O)[C@@H](O)CO
2. O=C(O)C[C@@H](O)C(=O)O
3. OC[C@@]12OC[C@@H](O1)[C@@H](O)[C@@H](O)[C@@H]2O
4. CCC(=O)C(=O)O

1. 1.01
2. 2.87
3. 0.71
4. 1.33

---

Tested on: NHBE cells
assay-protocol: Biolog metabolic array: substrate use by NHBE cells with or without CA09 infection
Assay type: cell-based, human
experimental-setup: Virus (CA09-infected, MOI 1) NHBE cells, 8 hr
I'd appreciate it if you marked entries fulfilled when 590 nm absorbance normalized to zero hour (substrate use), 8 hr is lower than 3 and not fulfilled when it is not.

Take a look at these entries with their results.
O=C[C@H](O)[C@@H](O)[C@@H](O)CO | not fulfilled
CC(=O)N[C@H]1C(O)O[C@H](CO)[C@@H](O)[C@@H]1O (stereo partly shown) | not fulfilled

Dear colleague, could you confirm whether 590 nm absorbance normalized to zero hour (substrate use), 8 hr of `OCc1ccccc1O[C@@H]1O[C@H](CO)[C@@H](O)[C@H](O)[C@H]1O` falls below 3? Thanks.
fulfilled

---

Tested on: NHBE cells
assay-protocol: Biolog metabolic array: substrate use by NHBE cells with or without CA09 infection
Format: cell-based, human
experimental-setup: Virus: CA09-infected NHBE cells, MOI 1; Biolog PMM2; 6 hr
Under this convention, Satisfied denotes 590 nm absorbance normalized to zero hour (substrate use), 6 hr strictly below 3 and Not satisfied denotes 590 nm absorbance normalized to zero hour (substrate use), 6 hr at or above 3.

Solved entries:
COC(=O)C(C)=O [Methyl Pyruvate] | Satisfied
OCC1OC(OC2C(CO)OC(OC3C(CO)OC(O)C(O)C3O)C(O)C2O)C(O)C(O)C1O (centres unmarked) | Not satisfied
OC[C@@H](O)[C@@H](O)CO | Satisfied
CCC(=O)O | Satisfied

Lab log: compare recorded 590 nm absorbance normalized to zero hour (substrate use), 6 hr with 3; is it strictly lower for `C[C@@H](O)[C@H](O)[C@H](O)[C@@H](O)C=O` ?
Satisfied

Regarding OC[C@H]1O[C@@H](O[C@@H]2[C@@H](CO)OC(O)(CO)[C@H]2O)[C@H](O)[C@@H](O)[C@H]1O (mixture of isomers) , kindly confirm whether its 590 nm absorbance normalized to zero hour (substrate use), 6 hr is beneath 3.
Not satisfied

Field: below-cutoff. Rule: recorded 590 nm absorbance normalized to zero hour (substrate use), 6 hr strictly less than 3. Subject: `NCCO`
Satisfied
